Where these numbers come from: patent US20260078130A1

# Tested system: human enzyme NAMPT (full length) (Homo sapiens)
# Construct: human enzyme NAMPT (full length)
# Assay method text: NMN fluorescence biochemical assay (stimulation of NMN synthesis by NAMPT)
# Test context: fold change of maximal activation compared to DMSO
Measured attribute: Enzymatic Emax

compound="O=C1c2ccccc2C(Cc2ncccc2Br)N1Cc1ccc2[nH]c(=O)ncc2c1 (stereo not shown) [Compound 348]" measured_attribute="Enzymatic Emax" reported_value="C (2≥C)"
compound="Cn1nc(CN2CCC2)c(Cl)c1CC1c2ccccc2C(=O)N1CC1CC2(CNC(=O)O2)C1 (stereo not shown) [Compound 508]" measured_attribute="Enzymatic Emax" reported_value="B (3≥B>2)"
compound="COc1ccc(CN2C(=O)c3ccccc3C2Cc2c(Cl)cnn2C)cn1 (stereo not shown) [Compound 574]" measured_attribute="Enzymatic Emax" reported_value="B (3≥B>2)"
compound="COc1cccc(CC2c3ccccc3C(=O)N2Cc2ccc3[nH]c(=O)oc3c2)c1 (stereo not shown) [Compound 180]" measured_attribute="Enzymatic Emax" reported_value="B (3≥B>2)"
compound="O=C1c2ccccc2C(Cc2ncccc2Br)N1Cc1cc2nn[nH]c2cc1F (stereo not shown) [Compound 271]" measured_attribute="Enzymatic Emax" reported_value="A (A>3)"
compound="COc1ccc(CN2C(=O)c3ccc(C4CC4)cc3C2Cc2c(Cl)cnn2C)cn1 (stereo not shown) [Compound 623]" measured_attribute="Enzymatic Emax" reported_value="A (A>3)"
compound="[2H]C1([2H])NC(=O)OC12CC(CN1C(=O)c3ccccc3C1Cc1c(Cl)cnn1C)C2 (stereo not shown) [Compound 535]" measured_attribute="Enzymatic Emax" reported_value="A (A>3)"
compound="CCc1cccnc1CC1c2ccccc2C(=O)N1Cc1ccc2[nH]c(=O)oc2c1 (stereo not shown) [Compound 182]" measured_attribute="Enzymatic Emax" reported_value="A (A>3)"
compound="O=C1c2ccc(C3CC3)cc2C(Cc2ccccc2)N1Cc1ccc2[nH]c(=O)oc2c1 (stereo not shown) [Compound 116]" measured_attribute="Enzymatic Emax" reported_value="B (3≥B>2)"
compound="O=C1c2ccccc2C(c2ccccc2)N1Cc1ccc2[nH]c(=O)oc2c1 (stereo not shown) [Compound 67]" measured_attribute="Enzymatic Emax" reported_value="B (3≥B>2)"
compound="Cn1ncc(Cl)c1CC1c2cccc(Cl)c2C(=O)N1Cc1ccc2[nH]nnc2c1 (stereo not shown) [Compound 336]" measured_attribute="Enzymatic Emax" reported_value="A (A>3)"
compound="O=C1c2ccccc2C(Cc2ncccc2Br)N1CCNc1c[nH]nn1 (stereo not shown) [Compound 456]" measured_attribute="Enzymatic Emax" reported_value="C (2≥C)"
compound="COc1ccc2c(c1)C(C)N(Cc1ccc3[nH]c(=O)oc3c1)C2=O (single isomer, unassigned) [Compound 243]" measured_attribute="Enzymatic Emax" reported_value="A (A>3)"
compound="COc1ccc(CN2C(=O)c3c(F)cc(Cl)cc3C2Cc2c(C)ccnc2C#N)cn1 (stereo not shown) [Compound 596]" measured_attribute="Enzymatic Emax" reported_value="B (3≥B>2)"
compound="Cn1ncc(Cl)c1CC1c2ccc(Cl)cc2C(=O)N1Cc1ccc2[nH]nnc2c1 (stereo not shown) [Compound 343]" measured_attribute="Enzymatic Emax" reported_value="A (A>3)"
compound="N#Cc1cccc(Cl)c1CC1c2ccccc2C(=O)N1Cc1ccc2[nH]c(=O)oc2c1 (stereo not shown) [Compound 190]" measured_attribute="Enzymatic Emax" reported_value="B (3≥B>2)"
compound="C/C(=C\\c1c[nH]nn1)CN1C(=O)c2ccccc2C1Cc1ncccc1Br (stereo not shown) [Compound 416]" measured_attribute="Enzymatic Emax" reported_value="B (3≥B>2)"
compound="O=C1NCC2(CC(CN3C(=O)c4ccccc4C3Cc3c(Cl)nc4ccccn34)C2)O1 (stereo not shown) [Compound 488]" measured_attribute="Enzymatic Emax" reported_value="B (3≥B>2)"
compound="NC(=O)C1CC(CN2C(=O)c3ccccc3C2Cc2ncccc2Br)C1 (stereo not shown) [Compound 404]" measured_attribute="Enzymatic Emax" reported_value="B (3≥B>2)"
compound="O=C1c2ccccc2C(Cc2ncccc2Br)N1Cc1ncc(O)cn1 (stereo not shown) [Compound 505]" measured_attribute="Enzymatic Emax" reported_value="C (2≥C)"
compound="O=C1NC(=O)C2(CC(CN3C(=O)c4ccccc4C3Cc3ncccc3Br)C2)O1 (stereo not shown) [Compound 476]" measured_attribute="Enzymatic Emax" reported_value="B (3≥B>2)"
compound="O=C1c2cccc(Br)c2C(=O)N1Cc1ccc(O)cc1 [Compound 296]" measured_attribute="Enzymatic Emax" reported_value="C (2≥C)"
compound="Cn1ncc(Cl)c1CC1c2cc(C#N)ccc2C(=O)N1CC1CC2(CNC(=O)O2)C1 (stereo not shown) [Compound 464]" measured_attribute="Enzymatic Emax" reported_value="B (3≥B>2)"
compound="COc1ccc(CN2C(=O)c3ccccc3C2Cc2c(Cl)ccc(=O)n2C)cc1 (stereo not shown) [Compound 589]" measured_attribute="Enzymatic Emax" reported_value="A (A>3)"
compound="COC(=O)Nc1ccc(CN2Cc3ccccc3C2=O)cc1 [Compound 294]" measured_attribute="Enzymatic Emax" reported_value="C (2≥C)"
compound="Cc1ccnnc1CC1c2ccccc2C(=O)N1Cc1ccc2[nH]c(=O)oc2c1 (stereo not shown) [Compound 261]" measured_attribute="Enzymatic Emax" reported_value="A (A>3)"
compound="O=C1c2ccccc2C(Cc2ncccc2Br)N1Cc1cc[nH]c(=O)c1 (stereo not shown) [Compound 266]" measured_attribute="Enzymatic Emax" reported_value="A (A>3)"
compound="Cn1nnc(Cl)c1CC1c2ccccc2C(=O)N1CC1CC2(CNC(=O)O2)C1 (stereo not shown) [Compound 489]" measured_attribute="Enzymatic Emax" reported_value="B (3≥B>2)"
compound="O=C1c2ccccc2C(Cc2ncccc2C(F)F)N1Cc1ccc2[nH]c(=O)oc2c1 (stereo not shown) [Compound 191]" measured_attribute="Enzymatic Emax" reported_value="A (A>3)"
compound="N#Cc1cccc(F)c1CC1c2ccccc2C(=O)N1Cc1ccc2[nH]c(=O)oc2c1 (stereo not shown) [Compound 170]" measured_attribute="Enzymatic Emax" reported_value="A (A>3)"
compound="COc1ccc2c(c1)CN(Cc1ccc3[nH]c(=O)oc3c1)C2=O [Compound 49]" measured_attribute="Enzymatic Emax" reported_value="B (3≥B>2)"
compound="COc1ccc(CN2C(=O)c3ccccc3C2Cc2c(Cl)cnn2C)cc1Cl (stereo not shown) [Compound 544]" measured_attribute="Enzymatic Emax" reported_value="C (2≥C)"
compound="Cn1ncc(Cl)c1CC1c2ccccc2C(=O)N1[C@H]1C[C@H](c2c[nH]c(=O)o2)C1 (stereo partly shown) [Compound 455]" measured_attribute="Enzymatic Emax" reported_value="C (2≥C)"
compound="O=C1c2ccccc2C(Cc2ncccc2Br)N1Cc1ccn2c(CO)nnc2c1 (stereo not shown) [Compound 323]" measured_attribute="Enzymatic Emax" reported_value="B (3≥B>2)"

====

# Tested system: human enzyme NAMPT (full length) (Homo sapiens)
# Construct: human enzyme NAMPT (full length)
# Assay method text: NMN fluorescence biochemical assay (stimulation of NMN synthesis by NAMPT)
# Test context: fold change of maximal activation compared to DMSO
Measured attribute: Enzymatic Emax

molecule="Cn1ncc(Cl)c1CC1c2ccccc2C(=O)N1CC1CC2(CNC(=O)S2)C1 (centres unmarked) [Compound 568]" reported_value="B (3≥B>2)"
molecule="N#Cc1cncc(C#N)c1CC1c2ccccc2C(=O)N1Cc1ccc2[nH]nnc2c1 (centres unmarked) [Compound 351]" reported_value="A (A>3)"
molecule="CCn1ncc(Cl)c1CC1c2ccccc2C(=O)N1CC1CC2(CNC(=O)O2)C1 (centres unmarked) [Compound 465]" reported_value="B (3≥B>2)"
molecule="Cc1nc(Cl)c(CC2c3ccccc3C(=O)N2CC2CC3(CNC(=O)O3)C2)n1C (centres unmarked) [Compound 526]" reported_value="B (3≥B>2)"
molecule="O=C1c2ccccc2CN1Cc1ccc(O)cc1 [Compound 12, 2-(4-hydroxybenzyl)isoindolin-1-one]" reported_value="B (3≥B>2)"
molecule="O=C1c2ccccc2C(Cc2nccs2)N1Cc1ccc2[nH]c(=O)oc2c1 (centres unmarked) [Compound 140]" reported_value="A (A>3)"
molecule="CCOc1ccccc1CC1c2ccccc2C(=O)N1Cc1ccc2[nH]c(=O)oc2c1 (centres unmarked) [Compound 166]" reported_value="B (3≥B>2)"
molecule="Cn1ncc(Cl)c1CC1c2cc(OC3CNC3)ccc2C(=O)N1Cc1ccc2[nH]nnc2c1 (centres unmarked) [Compound 437]" reported_value="A (A>3)"

====

# Tested system: human enzyme NAMPT (full length) (Homo sapiens, UniProt P43490)
# Construct: human enzyme NAMPT (full length)
# Sequence (P43490 whole entry): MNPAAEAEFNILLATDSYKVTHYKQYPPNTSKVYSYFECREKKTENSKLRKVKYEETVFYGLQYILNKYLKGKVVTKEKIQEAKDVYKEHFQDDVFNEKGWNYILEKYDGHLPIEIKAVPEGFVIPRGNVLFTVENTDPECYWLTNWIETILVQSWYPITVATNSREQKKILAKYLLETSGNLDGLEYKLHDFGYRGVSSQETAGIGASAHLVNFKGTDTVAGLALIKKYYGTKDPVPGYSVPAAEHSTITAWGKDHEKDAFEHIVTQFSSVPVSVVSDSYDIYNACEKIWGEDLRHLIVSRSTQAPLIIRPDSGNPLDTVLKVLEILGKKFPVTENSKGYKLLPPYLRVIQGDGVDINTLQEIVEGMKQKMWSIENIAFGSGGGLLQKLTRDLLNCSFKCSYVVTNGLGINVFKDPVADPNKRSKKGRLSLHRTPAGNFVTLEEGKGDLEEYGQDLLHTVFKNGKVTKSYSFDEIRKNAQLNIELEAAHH
# Assay method text: NMN fluorescence biochemical assay (stimulation of NMN synthesis by NAMPT)
# Test context: NMN synthesis by purified human NAMPT (100 nM); concentration giving half-maximal activation; read-out: Enzymatic EC50
pEC50: −log10 of the molar value.
Each entry below carries its recorded pEC50.
Measured attribute: pEC50

compound="CC1c2cc(NC3CC3)ccc2C(=O)N1Cc1ccc2[nH]c(=O)oc2c1 (single isomer, unassigned) [Compound 242]" reported_value="≤ 5.30"
compound="COc1ccc2c(c1)C(=O)N(Cc1ccc(O)cc1)C2=O [Compound 30]" reported_value="5.30 to 6.30"
compound="N#Cc1cncc(Cl)c1CC1c2ccccc2C(=O)N1Cc1ccc2[nH]nnc2c1 (stereo not shown) [Compound 278]" reported_value="> 6.30"
compound="O=C1c2ccccc2C(Cc2cc(Cl)ccn2)N1Cc1ccc2[nH]c(=O)oc2c1 (stereo not shown) [Compound 220]" reported_value="5.30 to 6.30"
compound="O=C1c2ccccc2C(CC2=CCOCC2)N1Cc1ccc2[nH]c(=O)oc2c1 (stereo not shown) [Compound 225]" reported_value="5.30 to 6.30"
compound="Cc1ccccc1CC1c2cccnc2C(=O)N1Cc1ccc2[nH]c(=O)oc2c1 (stereo not shown) [Compound 160]" reported_value="5.30 to 6.30"
compound="O=C1c2ccccc2C(Cc2cccc3ncoc23)N1Cc1ccc2[nH]c(=O)oc2c1 (stereo not shown) [Compound 218]" reported_value="5.30 to 6.30"
compound="NC(=O)c1ccc(CC2c3ccccc3C(=O)N2Cc2ccc3[nH]c(=O)oc3c2)cc1 (stereo not shown) [Compound 253]" reported_value="≤ 5.30"
compound="O=C1c2ccc(CN3CCOCC3)cc2C(Cc2ccccc2)N1Cc1ccc2[nH]c(=O)oc2c1 (stereo not shown) [Compound 123]" reported_value="5.30 to 6.30"
compound="CC1c2cc(C3CC3)ccc2C(=O)N1Cc1ccc2[nH]c(=O)oc2c1 (stereo not shown) [Compound 125]" reported_value="≤ 5.30"
compound="Cn1cnc(CC2c3ccccc3C(=O)N2Cc2ccc3[nH]c(=O)oc3c2)c1Cl (stereo not shown) [Compound 249]" reported_value="> 6.30"
compound="O=C1c2ccccc2C(Cc2ncccc2C2CC2)N1Cc1ccc2[nH]c(=O)oc2c1 (stereo not shown) [Compound 184]" reported_value="5.30 to 6.30"
compound="CC1c2cc(NC3CC4(CNC4)C3)ccc2C(=O)N1Cc1ccc2[nH]c(=O)oc2c1 (stereo not shown) [Compound 79]" reported_value="≤ 5.30"
compound="COC(=O)Nc1ccc(CN2Cc3ccccc3C2=O)cc1 [Compound 294]" reported_value="≤ 5.30"
compound="CC1c2cc(F)ccc2C(=O)N1Cc1ccc2[nH]c(=O)oc2c1 (stereo not shown) [Compound 275]" reported_value="≤ 5.30"
compound="CC1c2ccccc2C(=O)N1Cc1ccc(NC(=O)NCc2ccncc2)cc1 (stereo not shown) [Compound 291]" reported_value="> 6.30"
compound="CCn1c2ccccc2c(=O)n1Cc1ccc(O)cc1 [Compound 24]" reported_value="≤ 5.30"
compound="Cn1cc(Cl)c(CC2c3ccccc3C(=O)N2Cc2ccc3[nH]nnc3c2)n1 (stereo not shown) [Compound 250]" reported_value="> 6.30"
compound="N#Cc1ncccc1CC1c2ccccc2C(=O)N1Cc1ccc2[nH]c(=O)oc2c1 (stereo not shown) [Compound 201]" reported_value="5.30 to 6.30"
compound="O=C1c2cccc(Br)c2C(=O)N1Cc1ccc(O)cc1 [Compound 296]" reported_value="5.30 to 6.30"
compound="O=C1CCc2ccccc2N1Cc1ccc(O)cc1 [Compound 3]" reported_value="≤ 5.30"
compound="Cc1cc(CC2c3ccccc3C(=O)N2Cc2ccc3[nH]c(=O)oc3c2)ccn1 (stereo not shown) [Compound 179]" reported_value="≤ 5.30"
compound="O=C1c2ccccc2C(Cc2nn(C3COC3)cc2Cl)N1Cc1ccc2[nH]nnc2c1 (stereo not shown) [Compound 318]" reported_value="> 6.30"
compound="COC1CCN(Cc2ccc3c(c2)[C@H](C)N(Cc2ccc4[nH]c(=O)oc4c2)C3=O)C1 (single isomer, unassigned) [Compound 188]" reported_value="≤ 5.30"
compound="CC(C)c1cccnc1CC1c2ccccc2C(=O)N1Cc1ccc2[nH]c(=O)oc2c1 (stereo not shown) [Compound 181]" reported_value="≤ 5.30"
compound="N#Cc1nccc(Cl)c1CC1c2ccccc2C(=O)N1Cc1ccc2[nH]nnc2c1 (stereo not shown) [Compound 228]" reported_value="> 6.30"
compound="N#Cc1ccccc1CC1c2ccccc2C(=O)N1Cc1ccc(O)c(F)c1 (stereo not shown) [Compound 195]" reported_value="> 6.30"
compound="O=C1c2ccc(Br)cc2C(=O)N1Cc1ccc(O)cc1 [Compound 16]" reported_value="≤ 5.30"
compound="O=C1c2ccccc2C(Cc2ncco2)N1Cc1ccc2[nH]c(=O)oc2c1 (stereo not shown) [Compound 150]" reported_value="≤ 5.30"
compound="N#Cc1ccc(CC2c3ccccc3C(=O)N2Cc2ccc3[nH]c(=O)oc3c2)cc1 (stereo not shown) [Compound 148]" reported_value="5.30 to 6.30"
compound="N#Cc1cccc(CC2c3ccccc3C(=O)N2Cc2ccc3[nH]c(=O)oc3c2)n1 (stereo not shown) [Compound 219]" reported_value="5.30 to 6.30"
compound="Cc1conc1CC1c2ccccc2C(=O)N1Cc1ccc2[nH]c(=O)oc2c1 (stereo not shown) [Compound 248]" reported_value="5.30 to 6.30"
compound="N#Cc1nccc(Cl)c1CC1c2cccc(F)c2C(=O)N1Cc1ccc2[nH]c(=O)oc2c1 (stereo not shown) [Compound 286]" reported_value="> 6.30"
compound="O=C1c2ccc(N3CCCC3)cc2CN1Cc1ccc(O)cc1 [Compound 298]" reported_value="5.30 to 6.30"
